conditions: in water, 283.15 K
property: solubility (mole fraction)
Please reply with the value in numeric form only.

solubility (mole fraction) for CC(=O)Nc1ccc(OC(=O)c2ccccc2OC(C)=O)cc1 is 8.56e-07

###

conditions: in NMP, 318.15 K
property: solubility (mole fraction)
Keep it simple and answer with nothing but the number.

Sure, the documented solubility (mole fraction) for CC(=O)Nc1ccc(OC(=O)c2ccccc2OC(C)=O)cc1 is 0.0571

###

conditions: in water, 303.15 K
property: solubility (mole fraction)
Lab note: jot the number down without any unit.

// solubility (mole fraction) lookup, compound = CC(=O)Nc1ccc(OC(=O)c2ccccc2OC(C)=O)cc1 , result: 3.49e-06

###

settings: in isopropanol, 298.15 K
property: solubility (mole fraction)

Entry CC(=O)Nc1ccc(OC(=O)c2ccccc2OC(C)=O)cc1 ; solubility (mole fraction) = 0.000456
